Data origin: patent US8975409B2

target: rat S1P2 (Rattus norvegicus (Rat), UniProt P47752); test: Evaluation of S1P2 antagonistic activity by monitoring the change in intracellular calcium ion concentration (CHO cells overexpressing the rat S1P2 gene); format: cell-based; details: S1P 300 nM, intracellular calcium (Fura2-AM)
Sequence (P47752 whole entry): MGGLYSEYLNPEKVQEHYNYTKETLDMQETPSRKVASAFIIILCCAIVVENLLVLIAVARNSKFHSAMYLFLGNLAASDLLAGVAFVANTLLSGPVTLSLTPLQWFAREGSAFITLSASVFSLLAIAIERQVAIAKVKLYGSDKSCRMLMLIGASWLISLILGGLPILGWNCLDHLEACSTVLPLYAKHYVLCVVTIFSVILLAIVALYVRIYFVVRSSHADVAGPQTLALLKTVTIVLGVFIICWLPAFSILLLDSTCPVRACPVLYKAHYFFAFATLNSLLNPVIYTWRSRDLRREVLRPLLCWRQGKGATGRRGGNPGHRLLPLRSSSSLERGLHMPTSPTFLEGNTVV
OBSERVABLE: IC50 (nM)
Quick reminder: number only, in nM, skip the unit.

O=C(O)c1ccc(Oc2cc(NC(=O)N3CCC(O)(c4ccc(F)cc4)CC3)cc(Oc3ccc(F)cc3)c2)cc1: 3.3
CCC(CC)CC1(O)CCN(C(=O)Nc2cc(F)cc(C(F)(F)F)c2)CC1 [Comparative compound A, reference compound]: 72

IN: Tell me IC50 reported for CC(C)CC1(O)CCN(C(=O)Nc2cc(Oc3ccc(F)cc3)cc(Oc3ccc(C(C)(C)C(=O)O)cc3)c2)CC1
OUT: 2.5

IN: Tell me IC50 reported for CC(C)CC1(O)CN(C(=O)Nc2cc(Oc3ccc(F)cc3)cc(Oc3ccc(C(C)(C)C(=O)O)cc3)c2)C1
OUT: 1.7

IN: Tell me IC50 reported for CCNC(=O)c1ccc(Oc2cc(NC(=O)N3CCC(O)(CC(CC)CC)CC3)cc(Oc3ccc(F)cc3)c2)cc1
OUT: 9.6

IN: Tell me IC50 reported for CC(C)CC1(O)CCN(C(=O)Nc2cc(Oc3ccc(F)cc3)cc(C(=O)Oc3ccc(C(C)(C)C(=O)O)cc3)c2)CC1
OUT: 1
